Each item that follows carries a reported pIC50.
tested on: LoVo; experiment: Antiproliferative activity against human colon cancer cell line (LoVo cells) using MTT assay; format: functional, cell-based
pIC50: −log10 of the molar value.

| record-smiles | pIC50 |
| --- | --- |
| CN(C)CCN1C(=O)C(c2c[nH]c3ccccc23)=C(c2c[nH]c3ccccc23)C1=O | < 4.00 |
| CN(C)CCOCCn1cc(C2=C(c3c[nH]c4ccccc34)C(=O)N(CCN(C)C)C2=O)c2ccccc21 | < 4.00 |
| CNCCOCCn1cc(C2=C(c3c[nH]c4ccccc34)C(=O)N(CCN(C)C)C2=O)c2ccccc21 | < 4.00 |
| CN(C)CCN1C(=O)C(c2c[nH]c3ccccc23)=C(c2cn(CCOCCO)c3ccccc23)C1=O | 5.15 |
| O=C1NC(=O)C(c2cn(CCOCCO)c3ccccc23)=C1c1c[nH]c2ccccc12 | 4.70 |

Kindly review the next molecule as well.
IN: Give me measured pIC50, please, for this molecule: `CN(C)CCOCCn1cc(C2=C(c3c[nH]c4ccccc34)C(=O)NC2=O)c2ccccc21`
OUT: < 4.00

This collection of values is drawn from ChEMBL document CHEMBL1133806.
